Overview of recorded pIC50 for various binders
target: T1, HLA-DRB3*01:01 (human); assay: HLA class II competition binding assay
T1 construct: MHC class II molecule; how it was prepared for the assay is not described
pIC50: −log10 of the molar value.
Property Label: pIC50

binder="TLTAFGFASADLIEI [ApoB100 peptide 3563.0005]" property_label=pIC50 result_number=7.00
binder="LSQLQTYMIQFDQYI [ApoB100 peptide 3563.0012]" property_label=pIC50 result_number=5.95
binder="QELLDIANYLMEQIQ [ApoB100 peptide 3563.0003]" property_label=pIC50 result_number=7.06
binder="ILFSYFQDLVITLPF [ApoB100 peptide 3563.0023]" property_label=pIC50 result_number=7.15

Measured values drawn from patent US20220259288A1 for this set.
